In this section we review reported Mean fluorescence intensity values for a set of binders.
# assay-target: T1, human TIM-3 on CHOK1 stable cell line (CHOK1-hTIM-3) (human, UniProt Q8TDQ0 22-301)
# T1 sequence: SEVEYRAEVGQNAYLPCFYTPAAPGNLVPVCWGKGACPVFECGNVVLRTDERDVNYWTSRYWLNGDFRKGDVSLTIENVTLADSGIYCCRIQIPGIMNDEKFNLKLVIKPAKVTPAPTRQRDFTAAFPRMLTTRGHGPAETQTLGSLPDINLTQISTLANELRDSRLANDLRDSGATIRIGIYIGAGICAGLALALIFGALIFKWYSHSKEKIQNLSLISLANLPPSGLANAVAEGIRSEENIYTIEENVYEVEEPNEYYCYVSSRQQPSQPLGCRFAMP
# experiment-notes: FACS, CHOK1-hTIM-3 cells, 40 nM antibody
Answer field: number only, no words.

Study these solved cases before continuing.
[
  {
    "binder": "134H3G6 fully human TIM-3 antibody (human IgG4, kappa) (antibody, V domains shown) VH: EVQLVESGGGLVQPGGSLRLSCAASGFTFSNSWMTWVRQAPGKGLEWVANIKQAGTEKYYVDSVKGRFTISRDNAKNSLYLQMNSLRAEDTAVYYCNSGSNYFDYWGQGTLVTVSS VL: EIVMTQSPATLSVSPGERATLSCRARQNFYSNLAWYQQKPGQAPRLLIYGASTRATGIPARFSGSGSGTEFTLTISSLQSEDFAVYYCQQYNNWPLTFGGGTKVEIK",
    "Mean fluorescence intensity": 218
  },
  {
    "binder": "39E5H1 fully human TIM-3 antibody (human IgG4, kappa) (antibody, V domains shown) VH: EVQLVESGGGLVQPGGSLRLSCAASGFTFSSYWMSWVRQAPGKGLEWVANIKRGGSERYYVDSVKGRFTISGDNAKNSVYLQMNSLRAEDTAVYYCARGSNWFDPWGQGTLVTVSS VL: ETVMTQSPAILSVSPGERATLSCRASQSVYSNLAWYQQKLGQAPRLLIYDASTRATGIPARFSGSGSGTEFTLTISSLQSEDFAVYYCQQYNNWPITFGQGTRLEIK",
    "Mean fluorescence intensity": 264
  },
  {
    "binder": "34B6D8 fully human TIM-3 antibody (human IgG4, kappa) (antibody, V domains shown) VH: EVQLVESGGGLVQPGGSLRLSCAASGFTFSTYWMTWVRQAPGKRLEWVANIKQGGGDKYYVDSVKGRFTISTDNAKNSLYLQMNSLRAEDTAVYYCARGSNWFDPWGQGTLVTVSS VL: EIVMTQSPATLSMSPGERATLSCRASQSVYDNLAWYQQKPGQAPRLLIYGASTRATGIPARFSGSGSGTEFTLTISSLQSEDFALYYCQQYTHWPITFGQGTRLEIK",
    "Mean fluorescence intensity": 221
  }
]

Dear colleague, I am looking for the recorded Mean fluorescence intensity of the following binder: 57F4E5 fully human TIM-3 antibody (human IgG4, kappa) (antibody, V domains shown) VH: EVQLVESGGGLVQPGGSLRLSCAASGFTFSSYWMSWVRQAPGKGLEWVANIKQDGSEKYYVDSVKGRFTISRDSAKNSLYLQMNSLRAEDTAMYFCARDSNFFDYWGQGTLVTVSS VL: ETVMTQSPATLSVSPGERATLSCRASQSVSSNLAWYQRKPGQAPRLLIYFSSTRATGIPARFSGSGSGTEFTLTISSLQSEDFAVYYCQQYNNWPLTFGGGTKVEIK
147

Please give the result for 7A4F10 fully human TIM-3 antibody (human IgG4, kappa) (antibody, V domains shown) VH: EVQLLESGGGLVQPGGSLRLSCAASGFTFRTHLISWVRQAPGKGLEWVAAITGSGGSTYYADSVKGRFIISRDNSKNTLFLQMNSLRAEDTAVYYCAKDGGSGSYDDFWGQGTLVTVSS VL: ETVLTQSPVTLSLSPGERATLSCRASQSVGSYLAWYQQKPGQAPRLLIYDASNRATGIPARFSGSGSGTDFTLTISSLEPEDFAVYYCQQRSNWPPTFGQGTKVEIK too.
313

Please give the result for 18D2H2 fully human TIM-3 antibody (human IgG4, kappa) (antibody, V domains shown) VH: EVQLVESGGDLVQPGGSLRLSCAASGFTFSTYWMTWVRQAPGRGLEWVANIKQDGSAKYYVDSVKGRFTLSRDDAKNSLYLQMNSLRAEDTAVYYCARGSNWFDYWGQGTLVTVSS VL: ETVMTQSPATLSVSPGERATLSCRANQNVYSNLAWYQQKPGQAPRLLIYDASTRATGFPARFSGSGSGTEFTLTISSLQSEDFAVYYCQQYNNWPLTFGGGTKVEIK too.
257
